Examples of binders with documented OD 450 nm follow.
Target: T1, Human hepcidin peptide (hepcidin-25) (human)
T1 construct: Synthetic 25 aa peptide; also called hep-25; Hep-25
T1 peptide: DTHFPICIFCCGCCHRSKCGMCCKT
Test: titration affinity ELISA, hepcidin 100 ng/well on Nunc Immobilizer Amino plate, CHO supernatant; antibody 100 ng/ml
metric: OD 450 nm (OD450)

# binder, reported
rows = [
    ("BAP070-hum02 (antibody, IgG1, V domains shown, Expressed as soluble IgG1 in CHO cells, tested as supernatant; The entries stop inside FR4) VH: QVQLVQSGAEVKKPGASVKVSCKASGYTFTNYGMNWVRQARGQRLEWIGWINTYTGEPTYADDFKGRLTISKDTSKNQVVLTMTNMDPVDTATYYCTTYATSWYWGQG VL: AIQLTQSPSSLSASVGDRVTITCRASESVDSYGNSFMHWYQQKPGKAPKLLIYRASNLESGIPARFSGSGSGTEFTLTISSLQSEDFAVYYCQQSNEDLTFG", 3.31),
    ("BAP070-hum03 (antibody, IgG1, V domains shown, Expressed as soluble IgG1 in CHO cells, tested as supernatant; The entries stop inside FR4) VH: QVQLVQSGAEVKKPGASVKVSCKASGYTFTNYGMNWVRQATGQGLEWMGWINTYTGEPTYADDFKGRFVFSLDTSVSTAYLQICSLKAEDTAVYYCTTYATSWYWGQG VL: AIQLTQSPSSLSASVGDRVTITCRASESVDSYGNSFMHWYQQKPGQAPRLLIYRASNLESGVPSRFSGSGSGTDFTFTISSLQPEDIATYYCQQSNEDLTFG", 3.27),
    ("BAP070-hum01 (antibody, IgG1, V domains shown, Expressed as soluble IgG1 in CHO cells, tested as supernatant; The entries stop inside FR4 (...WGQG / ...FG); also called humanized hit 1) VH: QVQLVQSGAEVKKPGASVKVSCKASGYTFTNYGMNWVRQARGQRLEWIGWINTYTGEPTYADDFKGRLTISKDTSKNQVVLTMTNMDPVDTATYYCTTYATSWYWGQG VL: DIQMTQSPSSLSASVGDRVTITCRASESVDSYGNSFMHWYQQKPGQAPRLLIYRASNLESGVPSRFSGSGSGTDFTFTISSLQPEDIATYYCQQSNEDLTFG", 3.3),
    ("BAP070-hum04 (antibody, V domains shown, Expressed as soluble IgG1 in CHO cells, tested as supernatant; The entries stop inside FR4) VH: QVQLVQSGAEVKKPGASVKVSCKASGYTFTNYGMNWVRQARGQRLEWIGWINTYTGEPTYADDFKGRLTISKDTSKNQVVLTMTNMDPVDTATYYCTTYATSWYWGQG VL: AIQLTQSPSSLSASVGDRVTITCRASESVDSYGNSFMHWFQQRPGQSPRRLIYRASNLESGIPPRFSGSGYGTDFTLTINNIESEDAAYYFCQQSNEDLTFG", 3.35),
    ("BAP070-hum05 (antibody, IgG1, V domains shown, Expressed as soluble IgG1 in CHO cells, tested as supernatant; The entries stop inside FR4) VH: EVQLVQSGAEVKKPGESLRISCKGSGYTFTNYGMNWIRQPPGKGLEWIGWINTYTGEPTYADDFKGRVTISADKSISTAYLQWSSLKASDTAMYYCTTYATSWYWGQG VL: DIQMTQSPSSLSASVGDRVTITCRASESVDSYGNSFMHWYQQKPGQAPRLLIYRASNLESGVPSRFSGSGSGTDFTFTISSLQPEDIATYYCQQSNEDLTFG", 3.11),
]
